Cited source: ChEMBL document CHEMBL4765228

Examples of molecules with documented Activity follow.
Biological target: Receptor tyrosine-protein kinase erbB-4 (Homo sapiens) (UniProt Q15303)
Sequence (Q15303 whole entry): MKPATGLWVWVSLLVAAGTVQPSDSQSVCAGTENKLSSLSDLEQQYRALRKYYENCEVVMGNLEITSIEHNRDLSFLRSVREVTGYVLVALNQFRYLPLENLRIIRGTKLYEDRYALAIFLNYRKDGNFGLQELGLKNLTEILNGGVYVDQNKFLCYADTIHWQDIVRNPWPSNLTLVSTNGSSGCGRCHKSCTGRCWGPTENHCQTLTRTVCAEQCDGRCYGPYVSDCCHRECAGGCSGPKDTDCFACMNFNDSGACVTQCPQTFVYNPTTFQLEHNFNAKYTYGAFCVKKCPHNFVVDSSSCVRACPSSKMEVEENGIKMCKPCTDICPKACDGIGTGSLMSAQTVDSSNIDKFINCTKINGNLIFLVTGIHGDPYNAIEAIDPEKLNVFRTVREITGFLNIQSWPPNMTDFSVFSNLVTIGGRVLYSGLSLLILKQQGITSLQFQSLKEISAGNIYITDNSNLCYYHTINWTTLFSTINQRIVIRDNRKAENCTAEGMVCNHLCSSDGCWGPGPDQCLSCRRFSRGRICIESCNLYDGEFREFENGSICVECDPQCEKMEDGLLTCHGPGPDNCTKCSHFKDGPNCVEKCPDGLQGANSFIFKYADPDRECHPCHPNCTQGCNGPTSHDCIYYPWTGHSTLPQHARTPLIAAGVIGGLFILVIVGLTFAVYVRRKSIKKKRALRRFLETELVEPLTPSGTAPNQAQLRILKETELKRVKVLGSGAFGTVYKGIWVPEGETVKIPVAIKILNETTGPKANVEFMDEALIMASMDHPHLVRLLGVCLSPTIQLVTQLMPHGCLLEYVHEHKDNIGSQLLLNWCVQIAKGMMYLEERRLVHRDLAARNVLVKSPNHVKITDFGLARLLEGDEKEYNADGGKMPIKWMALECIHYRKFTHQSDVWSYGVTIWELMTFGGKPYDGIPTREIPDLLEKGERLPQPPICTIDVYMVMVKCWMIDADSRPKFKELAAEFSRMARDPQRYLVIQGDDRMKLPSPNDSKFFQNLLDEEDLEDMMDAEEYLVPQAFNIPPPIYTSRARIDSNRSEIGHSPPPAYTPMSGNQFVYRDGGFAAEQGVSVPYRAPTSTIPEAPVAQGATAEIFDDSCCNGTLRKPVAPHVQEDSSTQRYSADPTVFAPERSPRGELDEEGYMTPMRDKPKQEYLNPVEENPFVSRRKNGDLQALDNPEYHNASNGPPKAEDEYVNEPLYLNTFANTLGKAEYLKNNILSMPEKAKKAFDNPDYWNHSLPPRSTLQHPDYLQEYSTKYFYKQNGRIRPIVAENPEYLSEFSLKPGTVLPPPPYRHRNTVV
Assay: Inhibition of human ERBB4 assessed as residual activity at 1 uM relative to control
All answers are understood in %, so give the number only.

Some entries whose results are on file:
| smilesCode | measurement |
| --- | --- |
| Cn1cc(/C=C2\C(=O)Nc3ccc(S(N)(=O)=O)cc32)c2ccccc21 | 101 |
| COc1ccc2c(c1)c(/C=C1\C(=O)Nc3ccc(S(N)(=O)=O)cc31)cn2C | 87 |
| CNS(=O)(=O)c1ccc2c(c1)/C(=C/c1cn(C)c3ccc(OC)cc13)C(=O)N2 | 42 |
| COc1ccc2c(c1)c(/C=C1\C(=O)Nc3ccc(S(=O)(=O)N(C)C)cc31)cn2C | 85 |
| CN(C)S(=O)(=O)c1ccc2c(c1)/C(=C/c1cn(C)c3ccc(O)cc13)C(=O)N2 | 95 |

Turning to the following molecule.
**Query** For the molecule shown here, `COc1ccc2[nH]cc(/C=C3\C(=O)Nc4ccc(S(N)(=O)=O)cc43)c2c1` , give the reported Activity.
**Result** 60
